readout_name: melting point

COc1ccc2c(c1)CCCN2C(=O)c1ccccc1-c1ccccc1C(=O)O: 198 to 200 °C
Cc1ccc(-c2noc(-c3ccccc3-c3ccccc3C(=O)O)n2)cc1: 151 to 153 °C
O=C(O)c1ccccc1-c1ccccc1C(=O)N1CCCCc2ccccc21: 215 to 217 °C
O=C(O)c1ccccc1-c1ccccc1C(=O)N1CCCc2ccc(-c3ccncc3)cc21: 266 to 268 °C
COc1cc(-c2noc(-c3ccccc3-c3ccccc3C(=O)O)n2)ccn1: 154 to 156 °C

Hi team, please reply with melting point for each item in this list.
1. O=C(O)c1ccccc1-c1ccccc1-c1nc(-c2ccnc(Br)c2)no1
2. O=C(O)c1ccccc1-c1ccccc1-c1nc(-c2ccc(F)cc2)no1
3. O=C(O)c1ccccc1-c1ccccc1C(=O)N1CCCc2cc(Br)ccc21
4. O=C(O)c1ccccc1-c1ccccc1-c1nc(-c2ccc(Br)cc2)no1

Solution:
["165 to 168 °C", "150 to 153 °C", "261 to 262 °C", "148 to 150 °C"]

All values here come from paper PMC10648204.
